- TEST_TARGET: UniProtKB P08173
- Sequence (P08173 whole entry): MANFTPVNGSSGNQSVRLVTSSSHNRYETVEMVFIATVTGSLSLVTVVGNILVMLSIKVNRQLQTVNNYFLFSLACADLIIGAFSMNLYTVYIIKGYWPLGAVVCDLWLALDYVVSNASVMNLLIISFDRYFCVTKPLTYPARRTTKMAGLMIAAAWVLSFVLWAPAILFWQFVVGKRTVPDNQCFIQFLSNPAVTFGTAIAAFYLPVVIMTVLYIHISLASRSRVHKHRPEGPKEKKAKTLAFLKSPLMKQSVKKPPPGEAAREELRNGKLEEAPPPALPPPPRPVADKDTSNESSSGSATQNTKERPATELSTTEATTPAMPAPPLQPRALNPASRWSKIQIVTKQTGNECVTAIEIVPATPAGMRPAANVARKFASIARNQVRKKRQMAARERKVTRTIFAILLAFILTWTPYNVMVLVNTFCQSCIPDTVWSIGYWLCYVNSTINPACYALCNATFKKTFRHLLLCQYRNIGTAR
- PROTOCOL_DESCRIPTION: mAChR M4 cell-based functional assay: calcium mobilization (Fluo-4, FDSS), potentiation of EC20 acetylcholine response in hM4-Gqi5 CHO-K1 cells
- CONDITIONS_USED: potentiation of EC20 acetylcholine response, calcium mobilization, human M4
# note: exactly 0.5 µM is not below, so it is N; use Y for EC50 strictly under it

Cc1cc2nccc(=O)n2nc1N1CCc2ncc(-c3cccnc3F)cc2C1
Y
COc1cnccc1-c1cnc2c(c1)CN(c1nn3c(=O)cc(C)nc3c(C)c1C)CC2
Y
Cc1c(N2CCc3ncc(Oc4ccccc4F)cc3C2)nn2c(=O)ccnc2c1C
Y
Cc1c(N2CCc3ncc(C(F)(F)F)cc3C2)nn2c(=O)ccnc2c1C1CC1
Y
Cc1cc2nccc(=O)n2nc1N1CCc2ncc(Nc3cnccc3Cl)cc2C1
Y
Cc1cc(N2CCc3ncc(N4CCCn5nccc54)cc3C2)nn2c(=O)ccnc12
Y
COc1ccccc1-c1cnc2c(c1)CN(c1nn3c(=O)cc(C)nc3c(C)c1C)CC2
N
Cc1cc2nccc(=O)n2nc1N1CCc2ncc(Nc3cnccn3)cc2C1
N
Cc1cc2nccc(=O)n2nc1N1CCc2ncc(N3CCc4ncccc43)cc2C1
Y
COc1cc(C)c(-c2cnc3c(c2)CN(c2nn4c(=O)cc(C)nc4cc2C)CC3)cn1
N
Cc1ccc(-c2cnc3c(c2)CN(c2nn4c(=O)cc(C)nc4cc2C)CC3)c(C)c1
Y
Cc1cc(=O)n2nc(N3CCc4ncc(-c5cc(F)cc(F)c5F)cc4C3)c(C)c(C)c2n1
N
Cc1cc(=O)n2nc(N3CCc4ncc(-c5cnccc5Cl)cc4C3)c(C)c(C)c2n1
N
Cc1c(N2CCc3ncc(N4CCC(C)(C)C4=O)cc3C2)nn2c(=O)ccnc2c1C
N
Cc1c(N2CCc3ncc(-c4cncc(F)c4)cc3C2)nn2c(=O)cc(C(F)F)nc2c1C
Y
Cc1cc(=O)n2nc(N3CCc4ncc(-c5cnccc5C)cc4C3)c(C)cc2n1
Y
Cc1nc2c(C)c(C)c(N3CCc4ncc(N5CCCn6nccc65)cc4C3)nn2c(=O)c1F
Y
